Where do the numbers come from? From patent US20230159663A1.

# TARGET_UNDER_TEST: T1, human EpCAM extracellular domain with C-terminal His tag (Novoprotein #C339) (human, UniProt P16422 24-265)
# T1 construct: extracellular domain; Bought protein
# T1 sequence (looked up): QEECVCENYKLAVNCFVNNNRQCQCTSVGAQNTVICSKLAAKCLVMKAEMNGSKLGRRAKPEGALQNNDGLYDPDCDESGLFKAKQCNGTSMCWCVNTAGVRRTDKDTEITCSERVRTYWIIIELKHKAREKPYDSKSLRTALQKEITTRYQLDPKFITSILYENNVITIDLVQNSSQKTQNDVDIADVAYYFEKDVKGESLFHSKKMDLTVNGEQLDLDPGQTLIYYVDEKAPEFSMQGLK
# RUN_DESCRIPTION: ELISA on human EpCAM
OBSERVATION_TYPE: binding result

>>> result_value("mAb-39 (chimeric anti-EpCAM antibody) (antibody, V domains shown) VH: QIQLVQSGPELKKPGETVKISCKASGYTFTSYGVTWVKQAPGKGLKWMGWINTYSGVPTYADDFKGRFAFSLETSASTAYLQINNLKNEDTATYFCARSHSNYDFWGQGTTLTVSS VL: DIVMTQSQKFMSTTVGDRVSITCQASQNVGTDVGWYQQKPGQSPKLLIYSASNRYTGVPDRFTGSGSGTDFTLTISNMQSEDLADYFCQQYSSYPRTFGGGTKLEIK")
"binds"
>>> result_value("mAb-4 (chimeric anti-EpCAM antibody) (antibody, V domains shown) VH: QVQLQQPGAELVRPGTSVKLSCKASGYTFTSYWMHWIKQRPGQGLEWIGVIDPSNSYSNYNQKFKGRATLTVDTYSSTAYMQLSSLTSEDSAVYYCARPYNHGRDAMDYWGQGTSVTVSS VL: DVLLTQTPLSLSVSLGDQASISCRSSQSFVHINGNTYLEWFLQKPGLSPKLLIYKVSNRFSGVPDRFSGSGSGTDFTLKISRVEAEDLGIYYCFQGSHVPLTFGAGTKLELK")
"binds"
>>> result_value("mAb-35 (chimeric anti-EpCAM antibody) (antibody, V domains shown) VH: EVQLQQSVAELVRPGASVKLSCTASGFNIKNTYMHWVKQRPEQGLEWIGRIAPANGNTKYAPKFQDKATITANTSSNTAYLQLGSLTSEDTAIYYCAFIYQLPYWGQGTTLTVSS VL: DIVLTQSPASLAVSLGQRATISCRASESVDNYGISFMHWFQQKPGQPPKLLIFRASSLESGIPARFSGSGSRTDFTLTINPVETDDVATYYCQQSYKDPWTFGGATKLEIK")
"binds"
